tested on: gastric injury induced by ethanol; assay: Gastric ulcers induced by absolute ethanol in rats; assay type: in vivo, Sprague-Dawley derived male rats; details: 100 mg/kg P.O., 30 min before absolute ethanol; >=50% considered significant
reportedEndpoint: Reduction (%) of ulceration score vs concurrent vehicle control
Please reply with the bare figure in % and do not write the unit itself.

Short answer for CC(C)=CCCC(C)CCOC(=O)C(C)C (stereo not shown) [MIC-38, Citronellyl isobutryrate] : Reduction (%) of ulceration score vs concurrent vehicle control was 40

Short answer for CC(C)=CCCC(C)CCO (stereo not drawn) [MIC-45, (−)-β-Citronellol] : Reduction (%) of ulceration score vs concurrent vehicle control was 67

Short answer for CC(C)=CCCC(C)CCO (stereo not shown) [MIC-42, Citronellol] : Reduction (%) of ulceration score vs concurrent vehicle control was 76

Short answer for CC(C)=CCCC(C)CCO (stereo not shown) [MIC-31, Citronellol] : Reduction (%) of ulceration score vs concurrent vehicle control was 89
